Target: T1, extracellular domain (ECD) of murine IGSF11, biotinylated (mouse, UniProt P0C673 23-240, biotinylated (site not stated))
T1 construct: also called Mouse IGSF11; murine IGSF11 protein
T1 sequence: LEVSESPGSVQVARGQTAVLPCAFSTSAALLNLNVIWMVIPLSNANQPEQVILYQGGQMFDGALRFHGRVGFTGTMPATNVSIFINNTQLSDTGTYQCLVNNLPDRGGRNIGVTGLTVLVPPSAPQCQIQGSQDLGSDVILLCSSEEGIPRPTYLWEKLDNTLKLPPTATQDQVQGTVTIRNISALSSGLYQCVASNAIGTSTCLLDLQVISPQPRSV
Experiment: ELISA, scFv; RFU grade (*** >1.0, ** 0.5-1.0, * 0.1-0.5)
For each of the binders below, state its relative fluorescent units (RFU), ELISA.

Below: 5 binders and their reported relative fluorescent units (RFU), ELISA.
INSERT INTO assay_data (binder, measurement_label, meas_value) VALUES
  ('A-017 (scFv format) (scFv, V domains shown, scFv) VH: QVQLVQSGAEVKKPGASVKVSCKASGYTFTGYYMHWVRQAPGQGLEWMGWINPNSGNTGYAQKFQGRVTMTRNTSISTAYMELSSLRSEDTAVYYCARGGQQQLVLDDYWGQGTLVTVSS VL: DIVLTQSPASLSASVGDRITITCQASQDIRHHLNWFQHKPGKAPKLLISDSSNLETGVPSRFSGSGSGTDFSFTISRLQPEDIATYYCQQYDSLPRTFGQGTKLEIK', 'relative fluorescent units (RFU), ELISA', '0.1 to 0.5 rfu'),
  ('A-011 (scFv format) (scFv, V domains shown, scFv) VH: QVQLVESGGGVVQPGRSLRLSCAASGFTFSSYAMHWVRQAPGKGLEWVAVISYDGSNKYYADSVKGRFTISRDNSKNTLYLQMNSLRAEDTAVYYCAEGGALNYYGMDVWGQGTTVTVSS VL: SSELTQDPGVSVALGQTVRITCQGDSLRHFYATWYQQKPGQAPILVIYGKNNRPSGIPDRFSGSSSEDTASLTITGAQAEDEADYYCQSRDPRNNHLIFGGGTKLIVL', 'relative fluorescent units (RFU), ELISA', '> 1 rfu'),
  ('A-002 (scFv format) (scFv, V domains shown, scFv) VH: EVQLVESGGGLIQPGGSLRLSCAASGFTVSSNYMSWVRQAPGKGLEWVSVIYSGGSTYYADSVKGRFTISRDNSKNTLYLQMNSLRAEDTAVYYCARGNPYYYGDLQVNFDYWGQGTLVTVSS VL: QAVVTQEPSLTVSPGGTVTPTCGSSTGAVTSGNLPNWFQQKPGQAPRALIYSTSNKHSWTPARISGSLLGGKAALTLSGVQPEDEAEYYCLLYYGGAWVFGGGTKLTVL', 'relative fluorescent units (RFU), ELISA', '0.1 to 0.5 rfu'),
  ('A-028 (scFv format) (scFv, V domains shown, scFv) VH: QVQLVQSGAEVKKPGSSVKVSCKASGGTFSSYAISWVRQAPGQGLEWMGGIIPIFGTANYAQKFQGRVTITADESTSTAYMELSSLRSEDTAVYYCARVGVEYQLLWYFDYWGQGTLVTVSS VL: DIQMTQSPSSLSASVGDRVTLTCRTSQTISNYLNWYQQKPGKAPKLLVYAASNLQSWVPSRFSGSGSGTDFTLTISSLQPEDFATYYCQQSYNASFGGGTKVEFK', 'relative fluorescent units (RFU), ELISA', '0.1 to 0.5 rfu'),
  ('A-010 (scFv format) (scFv, V domains shown, scFv) VH: QVQLVQSGAEVKKPGASVKVSCKASGYTFTSYGISWVRQAPGQGLEWMGWISAYNGNTNYAQKLQGRVTMTTDTSTSTAYMELRSLRSDDTAVYYCARVPAWSGQFDYWGQGTLVTVSS VL: QSALTQPASVSGSPGQSITISCTGSSSDVGGYNYVSWYQQYPGKAPKLMIYDVRSRPSGVSNRFSGSKSGNTASLTISGLQAEDEADYYCTSYTSSNTLVIFGGGTKVTVL', 'relative fluorescent units (RFU), ELISA', '0.5 to 1 rfu');

List the reported relative fluorescent units (RFU), ELISA of each binder below.
1. A-009 (scFv format) (scFv, V domains shown, scFv) VH: QVQLVQSGAEVKKPGSSVKVSCKASGGTFSSYAISWVRQAPGQGLEWMGGIIPIFGTANYAQKFQGRVTITADESTSTAYMELSSLRSEDTAVYYCARGRGFGELYFDYWGQGTLVTVSS VL: ETTLTQSPATLSVSPGERATLSCRASQGVRSNIAWYQQKPGQAPRLLIYDSSTRATGIPARFSGSGSGTEFTLTISSLQSEDFAVYSCQQYKNWPRTFGQGTKVEIK
2. A-027 (scFv format) (scFv, V domains shown, scFv) VH: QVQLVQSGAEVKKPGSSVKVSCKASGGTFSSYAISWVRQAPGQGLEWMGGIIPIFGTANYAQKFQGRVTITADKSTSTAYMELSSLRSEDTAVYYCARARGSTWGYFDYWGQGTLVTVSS VL: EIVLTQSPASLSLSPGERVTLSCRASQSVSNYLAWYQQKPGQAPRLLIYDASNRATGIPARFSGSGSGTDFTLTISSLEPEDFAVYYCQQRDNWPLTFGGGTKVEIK
3. A-013 (scFv format) (scFv, V domains shown, scFv) VH: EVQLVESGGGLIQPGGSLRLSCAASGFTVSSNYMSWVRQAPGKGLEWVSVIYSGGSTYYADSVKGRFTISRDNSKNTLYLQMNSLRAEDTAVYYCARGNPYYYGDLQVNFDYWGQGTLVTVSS VL: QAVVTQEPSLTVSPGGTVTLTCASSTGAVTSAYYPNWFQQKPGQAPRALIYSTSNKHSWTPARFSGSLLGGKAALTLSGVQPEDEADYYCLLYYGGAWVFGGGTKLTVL

0.1 to 0.5 rfu
0.1 to 0.5 rfu
0.5 to 1 rfu

List the reported relative fluorescent units (RFU), ELISA of each binder below.
1. A-006 (scFv format) (scFv, V domains shown, scFv) VH: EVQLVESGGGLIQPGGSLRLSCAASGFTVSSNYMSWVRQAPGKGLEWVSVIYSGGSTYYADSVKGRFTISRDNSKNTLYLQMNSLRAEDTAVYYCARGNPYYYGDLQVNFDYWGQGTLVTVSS VL: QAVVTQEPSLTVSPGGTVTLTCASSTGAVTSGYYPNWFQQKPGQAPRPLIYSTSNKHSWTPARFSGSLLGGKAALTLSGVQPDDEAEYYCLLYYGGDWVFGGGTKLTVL
2. A-022 (scFv format) (scFv, V domains shown, scFv) VH: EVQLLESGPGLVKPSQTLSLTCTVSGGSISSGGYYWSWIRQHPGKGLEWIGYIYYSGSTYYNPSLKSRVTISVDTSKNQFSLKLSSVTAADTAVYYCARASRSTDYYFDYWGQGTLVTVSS VL: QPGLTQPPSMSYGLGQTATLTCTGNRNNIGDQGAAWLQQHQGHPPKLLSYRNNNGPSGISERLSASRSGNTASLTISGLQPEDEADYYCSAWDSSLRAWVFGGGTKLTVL

1. 0.5 to 1 rfu
2. > 1 rfu
